From: the NIST ThermoML archive (doi:10.1016/j.jct.2014.12.027)

assay: activity coefficient (dimensionless); of the first substance listed, at infinite dilution; xn = mol fraction of the nth substance listed; conditions: 348.15 K; 101 kPa; Liquid; Chromatography; x1 = 0
Binary call on activity coefficient with cut-off 4: strictly below means Criterion met, and equality or higher means Criterion not met.

// below: answered molecules
{"columns": ["molecule", "assigned-class"],
 "data": [
  ["Cc1ccc(C)cc1 [1,4-dimethylbenzene] + CCCC[n+]1ccc(C)cc1.N#CC(=C=[N-])C#N", "Criterion met"],
  ["C=CCCCCCC [oct-1-ene] + CCCC[n+]1ccc(C)cc1.N#CC(=C=[N-])C#N", "Criterion not met"],
  ["CCCCCCCCC [nonane] + CCCC[n+]1ccc(C)cc1.N#CC(=C=[N-])C#N", "Criterion not met"],
  ["C#CCCCCC [1-heptyne] + CCCC[n+]1ccc(C)cc1.N#CC(=C=[N-])C#N", "Criterion not met"],
  ["c1ccsc1 [thiophene] + CCCC[n+]1ccc(C)cc1.N#CC(=C=[N-])C#N", "Criterion met"],
  ["C1CCCCCC1 [cycloheptane] + CCCC[n+]1ccc(C)cc1.N#CC(=C=[N-])C#N", "Criterion not met"],
  ["c1ccccc1 [benzene] + CCCC[n+]1ccc(C)cc1.N#CC(=C=[N-])C#N", "Criterion met"],
  ["CCOC(C)=O [ethyl acetate] + CCCC[n+]1ccc(C)cc1.N#CC(=C=[N-])C#N", "Criterion met"]
]}

Strictly below 4 in activity coefficient? CO [methanol] + CCCC[n+]1ccc(C)cc1.N#CC(=C=[N-])C#N
Criterion met

Strictly below 4 in activity coefficient? C1COCCO1 [1,4-dioxane] + CCCC[n+]1ccc(C)cc1.N#CC(=C=[N-])C#N
Criterion met

Strictly below 4 in activity coefficient? CCCCCCCC [octane] + CCCC[n+]1ccc(C)cc1.N#CC(=C=[N-])C#N
Criterion not met

Strictly below 4 in activity coefficient? Cc1ccccc1 [toluene] + CCCC[n+]1ccc(C)cc1.N#CC(=C=[N-])C#N
Criterion met

====

experiment: activity coefficient (dimensionless); of the first substance listed, at infinite dilution; xn = mol fraction of the nth substance listed; details: 318.15 K; 101 kPa; Liquid; Chromatography; x1 = 0
endpoint-label: activity coefficient
Answer with a number only.

{"columns": ["molecule", "activity coefficient"],
 "data": [
  ["CCCCCCCC [octane] + CCCC[n+]1ccc(C)cc1.N#CC(=C=[N-])C#N", 46.4],
  ["CC(C)O [propan-2-ol] + CCCC[n+]1ccc(C)cc1.N#CC(=C=[N-])C#N", 1.15]
]}

Now let's try a different one.
Provide activity coefficient value for the following molecule: Cc1ccccc1C [1,2-dimethylbenzene] + CCCC[n+]1ccc(C)cc1.N#CC(=C=[N-])C#N
1.4
